# target or test system: T1, Med25-ACID_(532-680), activator interaction domain (ACID) of mediator complex subunit 25 (Arabidopsis thaliana, UniProt Q7XYY2 532-680)
# T1 chain: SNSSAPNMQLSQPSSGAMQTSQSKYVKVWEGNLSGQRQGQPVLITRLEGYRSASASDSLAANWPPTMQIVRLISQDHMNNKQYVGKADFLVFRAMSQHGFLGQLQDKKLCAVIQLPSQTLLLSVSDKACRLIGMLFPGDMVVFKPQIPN
# assay comment: NMR; cis proline isomer, 10 °C
test readout: Kd (nM)
Numeric answer only, unit nM assumed.

Please give the measured Kd for this binder: QDSLSVADYGWPNDVDQSHLDSSDMFDVDELLRDLNGDDVFAG (domain or fragment, Arabidopsis thaliana, UniProt O82132 234-276, looked up, 13C,15N-labelled in the CEST experiments; Populates cis (30 ± 1%) and trans Trp244-Pro245 isomers in the free state; also called bivalent ABS-RIM fragment; source: E. coli BL21 DE3, purified (glutathione Sepharose, TEV cleavage, SEC); not shown: GST, N-terminal, cleaved) [DREB2A_(234-276) (ABS-RIM)] 110
